// data source = patent US20100256041A1

tested on: MCF-7 (human breast adenocarcinoma cell line); test: cells; assay type: cell-based; settings: Homo sapiens, MCF7, 96 h
Metric name: IC50

Prompt line: Write down the reported IC50 of O=C(O)CCCc1ccc(N(CCCl)CCCl)cc1 , test system: MCF-7 (human breast adenocarcinoma cell line).
Response line: > 1000 µM

----------
system: SiHa (humon cervix squamous carcinoma cell line); assay: cells; type: cell-based, human; conditions: Homo sapiens, SiHa, 96 h
pIC50: −log10 of the molar value.
Metric name: pIC50

Prompt line: Please report the recorded pIC50 for O=C(O)CCCc1ccc(N(CCCl)CCCl)cc1 .
Response line: < 3.00

----------
system: MCF-7 (human breast adenocarcinoma cell line); assay: MTT cell survival assay, 96 h treatment (Example 2, oxaliplatin conjugates); format: cell-based; conditions: MCF-7 cells, Example 2, triplicate
Exercise: state measured pIC50 for each of the compounds provided.
Scale: negative log10 of molar concentration, which is what pIC50 denotes.

Prompt line: Write down the reported pIC50 of O=C(O)C(=O)O.[NH-][C@@H]1CCCC[C@H]1[NH-].[Pt+2] , test system: MCF-7 (human breast adenocarcinoma cell line).
Response line: 5.82

Prompt line: Write down the reported pIC50 of N.N.[Cl][Pt][Cl] [Cisplatin, cis-diamindichloroplatin (II)] , test system: MCF-7 (human breast adenocarcinoma cell line).
Response line: 5.04

----------
tested on: MRC-5 (human fibroblast); test: MTT cell survival assay, 96 h treatment (Example 1); type: cell-based; conditions: MRC-5 fibroblast cells
Metric name: IC50 (µM)
Give the value in µM but do not write µM after it.

Prompt line: Write down the reported IC50 of N.N.[Cl][Pt][Cl] [Cisplatin, cis-diamindichloroplatin (II)] , test system: MRC-5 (human fibroblast).
Response line: 4.88
